Cited source: ChEMBL document CHEMBL3856275

The molecules listed here are annotated with their CLH.
- test description: Intrinsic clearance in rat hepatocytes assessed per 10^6 cells at 1 uM after 10 to 90 mins by LC-MS/MS method
- Type: ADME, cell-based, Hepatocyte

molecule	value kind	value measured
Cn1c(=O)oc2ccc(-c3ccc(C[C@@H](C#N)NC(=O)[C@@H]4CNCCCO4)cc3)cc21 [BRENSOCATIB]	CLH	< 3.5 µL/min/10^6 cells
Cn1c(=O)sc2ccc(-c3ccc(C[C@@H](C#N)NC(=O)[C@@H]4CNCCCO4)cc3)cc21	CLH	< 3.5 µL/min/10^6 cells

Then this molecule:
CLH lookup needed for CCn1c(=O)oc2ccc(-c3ccc(C[C@@H](C#N)NC(=O)[C@@H]4CNCCCO4)cc3)cc21 , thanks.
< 3.5 µL/min/10^6 cells

----------
- test description: Protein binding in human plasma at 10 uM after 6 hrs by LC-MS/MS method
- Type: ADME, cell-free
- particulars: read-out: PPB (converted)
value kind: fraction unbound at 6 h, 10 µM

// solved cases for fraction unbound at 6 h, 10 µM follow
compound	value measured
CCn1c(=O)oc2ccc(-c3ccc(C[C@@H](C#N)NC(=O)[C@@H]4CNCCCO4)cc3)cc21	0.06
Cn1c(=O)sc2ccc(-c3ccc(C[C@@H](C#N)NC(=O)[C@@H]4CNCCCO4)cc3)cc21	0.07
Cn1c(=O)oc2ccc(-c3ccc(C[C@@H](C#N)NC(=O)[C@@H]4CNCCCO4)cc3)cc21 [BRENSOCATIB]	0.13

(1) N#C[C@H](Cc1ccc(-c2ccc3oc(=O)n(CC(F)F)c3c2)cc1)NC(=O)[C@@H]1CNCCCO1
(2) N#Cc1ccc(-c2ccc(C[C@@H](C#N)NC(=O)[C@@H]3CCCCC[C@@H]3N)cc2)cc1
Select the item with the higher value of fraction unbound at 6 h, 10 µM from the options 1 and 2 listed. Return value: the label identifying the chosen record.
1
(1: 0.07, 2: 0.03)

----------
- test description: Intrinsic clearance in human liver microsomes at 1 uM after 5 to 30 mins by LC-MS/MS method
- Assay type: ADME
- particulars: read-out: CLH
value kind: microsomal CLint at 1 µM

Which value of microsomal CLint at 1 µM has been reported for Cn1c(=O)oc2ccc(-c3ccc(C[C@@H](C#N)NC(=O)[C@@H]4CNCCCO4)cc3)cc21 [BRENSOCATIB] in the records?
< 3 µL/min/mg

----------
- test description: Oral bioavailability in Han Wistar rat at 3 mg/kg
- Type: ADME, organism-based
- particulars: in vivo
value kind: bioavailability (%)

(I) N#Cc1ccc(-c2ccc(C[C@@H](C#N)NC(=O)[C@@H]3CNCCCO3)cc2)cc1
(II) Cn1c(=O)oc2ccc(-c3ccc(C[C@@H](C#N)NC(=O)[C@@H]4CNCCCO4)cc3)cc21
Pick one: I or II . Which has the bigger bioavailability number? Lab note: record the label of whichever item you select.
II

----------
- test description: Half life in Han Wistar rat at 1 mg/kg, iv and 3 mg/kg, po
- Format: ADME, organism-based
- particulars: in vivo
value kind: half-life (min)

compound	unit tag	half-life
Cn1c(=O)oc2ccc(-c3ccc(C[C@@H](C#N)NC(=O)[C@@H]4CNCCCO4)cc3)cc21 [BRENSOCATIB]	min	300
N#Cc1ccc(-c2ccc(C[C@@H](C#N)NC(=O)[C@@H]3CNCCCO3)cc2)cc1	min	372

----------
- test description: Apparent permeability across basolateral to apical side in human Caco2 cells at 10 uM after 1 hr by LC-MS method
- particulars: Caco-2
value kind: Papp B→A at 1 h, 10 µM (×10⁻⁶ cm/s)

compound	Papp B→A at 1 h, 10 µM, ×10⁻⁶ cm/s
Cc1cc(-c2ccc(C[C@@H](C#N)NC(=O)[C@@H]3CNCCCO3)cc2)cc2c1oc(=O)n2C	76

(P) Cn1c(=O)sc2ccc(-c3ccc(C[C@@H](C#N)NC(=O)[C@@H]4CNCCCO4)cc3)cc21
(Q) N#Cc1ccc(-c2ccc(C[C@@H](C#N)NC(=O)[C@@H]3CCCCC[C@@H]3N)cc2)cc1
Among P and Q , which shows a numerically higher Papp B→A at 1 h, 10 µM result? Returns: label corresponding to the selected item.
P
(P: 51 ×10⁻⁶ cm/s, Q: 23 ×10⁻⁶ cm/s)

----------
- test description: physchem
- particulars: octanol/water, pH 7.4
value kind: logD at 10 µM

molecule	logD at 10 µM
CN1C(=O)C(F)(F)c2ccc(-c3ccc(C[C@@H](C#N)NC(=O)[C@@H]4CNCCCO4)cc3)cc21	1.4
Cn1c(=O)cnc2ccc(-c3ccc(C[C@@H](C#N)NC(=O)[C@@H]4CNCCCO4)cc3)cc21	0.6
N#Cc1ccc(-c2ccc(C[C@@H](C#N)NC(=O)[C@H]3CCCNC3)cc2)cc1	0.2
N#C[C@H](Cc1ccc(-c2ncc(C(F)(F)F)cn2)cc1)NC(=O)[C@@H]1CNCCCO1	1.1

(A) N#Cc1ccc(-c2ccc(C[C@@H](C#N)NC(=O)[C@@H]3CNCCO3)cc2)cc1
(B) N#C[C@H](Cc1ccc(-c2ccc(C(F)(F)F)cc2)cc1)NC(=O)[C@@H]1CNCCCO1
(C) Cn1c(=O)oc2ccc(-c3ccc(C[C@@H](C#N)NC(=O)[C@@H]4CNCCCO4)cc3)cc21
Which order do these items take when sorted by rising logD at 10 µM? List them. // format: requested-order list of labels
C, A, B

----------
- test description: physchem
- particulars: octanol/water, pH 7.4
value kind: logD at 10 µM

molecule	logD at 10 µM
Cn1c(=O)sc2ccc(-c3ccc(C[C@@H](C#N)NC(=O)[C@@H]4CNCCCO4)cc3)cc21	1.5

(P) N#C[C@H](Cc1ccc(-c2ccc3oc(=O)n(CC(F)F)c3c2)cc1)NC(=O)[C@@H]1CNCCCO1
(Q) Cc1cc(-c2ccc(C[C@@H](C#N)NC(=O)[C@@H]3CNCCCO3)cc2)cc2c1oc(=O)n2C
// which entry reports the smaller logD at 10 µM, P or Q ? State your choice using its label.
P

----------
Parameter: microsomal CLint at 1 µM. Scope: all listed entries.
- test description: Intrinsic clearance in human liver microsomes at 1 uM after 5 to 40 mins by LC-MS/MS method
- Format: ADME
- particulars: read-out: CLH

As a guide, the following entries are already answered.
compound	microsomal CLint at 1 µM
N#C[C@H](Cc1ccc(-c2ccc3oc(=O)n(CC(F)F)c3c2)cc1)NC(=O)[C@@H]1CNCCCO1	< 14 µL/min/mg
Cc1cc(-c2ccc(C[C@@H](C#N)NC(=O)[C@@H]3CNCCCO3)cc2)cc2c1oc(=O)n2C	< 14 µL/min/mg
N#Cc1ccc(-c2ccc(C[C@@H](C#N)NC(=O)[C@@H]3CNCCCO3)cc2)cc1	9.5 µL/min/mg
Cn1c(=O)sc2ccc(-c3ccc(C[C@@H](C#N)NC(=O)[C@@H]4CNCCCO4)cc3)cc21	< 15 µL/min/mg
CCn1c(=O)oc2ccc(-c3ccc(C[C@@H](C#N)NC(=O)[C@@H]4CNCCCO4)cc3)cc21	< 14 µL/min/mg
Cn1c(=O)oc2ccc(-c3ccc(C[C@@H](C#N)NC(=O)[C@@H]4CNCCCO4)cc3)cc21 [BRENSOCATIB]	< 14 µL/min/mg

May I ask what microsomal CLint at 1 µM has been recorded for N#Cc1ccc(-c2ccc(C[C@@H](C#N)NC(=O)[C@@H]3CCCCC[C@@H]3N)cc2)cc1 ?
13 µL/min/mg

And for N#Cc1ccc(-c2ccc(C[C@@H](C#N)NC(=O)[C@@H]3CCCC[C@@H]3N)cc2)cc1 ?
9.3 µL/min/mg

----------
- test description: Apparent permeability across basolateral to apical side in human Caco2 cells at 10 uM after 2 hrs by LC-MS/MS method
- Format: ADME, cell-based
- particulars: Caco-2
value kind: Papp B→A at 2 h, 10 µM (×10⁻⁶ cm/s)
API: value field is a number in ×10⁻⁶ cm/s; no unit string.

Please look up its Papp B→A at 2 h, 10 µM: Cn1c(=O)oc2ccc(-c3ccc(C[C@@H](C#N)NC(=O)[C@@H]4CNCCCO4)cc3)cc21
27

----------
- assayed system: UniProtKB P80067
- Sequence (P80067 whole entry): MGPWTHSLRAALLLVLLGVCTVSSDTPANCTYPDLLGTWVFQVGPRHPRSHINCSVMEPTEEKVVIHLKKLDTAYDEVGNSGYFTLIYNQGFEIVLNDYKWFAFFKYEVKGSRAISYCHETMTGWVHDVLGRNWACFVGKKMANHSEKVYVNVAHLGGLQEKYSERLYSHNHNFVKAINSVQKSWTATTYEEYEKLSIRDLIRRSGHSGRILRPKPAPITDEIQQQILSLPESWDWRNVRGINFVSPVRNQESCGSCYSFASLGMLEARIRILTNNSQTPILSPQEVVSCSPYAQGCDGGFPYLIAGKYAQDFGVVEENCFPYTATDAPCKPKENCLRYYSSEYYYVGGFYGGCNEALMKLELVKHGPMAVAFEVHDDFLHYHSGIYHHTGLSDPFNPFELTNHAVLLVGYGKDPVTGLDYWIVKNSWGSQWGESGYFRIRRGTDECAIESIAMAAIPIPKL
value kind: pIC50
Scale: pIC50 equals -log10([C]), with [C] in mol/L.

Fill in the blank: the reported pIC50 of Cn1c(=O)oc2ccc(-c3ccc(C[C@@H](C#N)NC(=O)[C@@H]4CNCCCO4)cc3)cc21 [BRENSOCATIB] is ____.
7.70
